Items are presented alongside their recorded Ki.
# Subject Of Test: second (BD2: amino acids E352-E168) bromodomain of BRD4 (Homo sapiens, UniProt O60885)
# Construct: protocol
# Assay Notes: TR-FRET bromodomain binding assay, BRD4 BD2
# Test Settings: TR-FRET assay protocol (A-G, compound concentration range); Ki calculated from IC50, probe Kd and probe concentration; read-out: TR-FRET Binding Ki: BRD4 (BDII_E352-M457)
Measured Metric: Ki (nM)

>>> observed("Cn1cc(-c2cc(NS(C)(=O)=O)ccc2Oc2ccc(F)cc2F)c(-c2ccc(CO)cc2)cc1=O")
4.62
>>> observed("COc1cc(=O)n(C)nc1-c1cc(NS(=O)(=O)C2CCCC2)ccc1Oc1ccccc1")
104
>>> observed("COc1cccc(-c2cc(=O)n(C)nc2-c2ccccc2Oc2ccccc2)c1")
725
>>> observed("CNC(=O)c1ccc(-c2cc(=O)n(C)nc2-c2ccccc2Oc2ccccc2)cc1")
139
>>> observed("Cn1cc(-c2cc(Nc3ccccn3)ccc2Oc2ccccc2)ccc1=O")
3270
>>> observed("Cn1cc(-c2cc(NS(C)(=O)=O)ccc2Oc2cccc(F)c2)ccc1=O")
132
>>> observed("CCS(=O)(=O)Nc1ccc(Oc2ccc(F)cc2F)c(-c2cc(Cl)c(=O)n(C)c2)c1")
39.4
>>> observed("Cn1nc(-c2ccccc2Oc2ccccc2)c(-c2cccnc2)cc1=O")
317

----------
# Subject Of Test: second (BD2: amino acids E352-E168) bromodomain of BRD4 (Homo sapiens)
# Construct: protocol
# Assay Notes: TR-FRET bromodomain binding assay, BRD4 BD2
# Test Settings: TR-FRET assay protocol (D, E or G) per compound; Ki calculated from IC50, probe Kd and probe concentration; read-out: TR-FRET Binding Ki: BRD4 (BDII_E352-M457)
pKi: −log10 of the molar value.
Each entry below lists one item and its recorded pKi value.
Measured Metric: pKi

>>> observed("CCOc1cc(=O)n(C)cc1-c1cc(NS(=O)(=O)CC)ccc1Oc1ccc(C(F)(F)F)cc1 [Example 386]")
7.99
>>> observed("CCOc1cc(=O)n(C)cc1-c1cc(S(=O)(=O)N2CCc3ccccc32)ccc1Oc1ccc(F)cc1F [Example 419]")
8.55
>>> observed("CCOc1cc(=O)n(C)cc1-c1cc(S(=O)(=O)CC)ccc1NC1CC1 [Example 373]")
6.78

----------
Reported EC50 by item:
# System: breast cancer cell line MX-1
# Assay Notes: MX-1 cell line proliferation assay (3-day)
# Assay type: cell-based
# Test Settings: Homo sapiens, MX1; MX-1 cells, 72 hours with compound, Cell Titer Glo; read-out: Cellular proliferation: EC50
Measured Metric: EC50 (nM)

>>> observed("CCOc1cc(=O)n(C)cc1-c1cc(NS(=O)(=O)CC)ccc1Oc1ccc(Cl)cc1")
18.1
>>> observed("CCOc1cc(=O)n(C)cc1-c1cc(NS(=O)(=O)CC)ccc1Oc1ccc(OC(F)(F)F)cc1")
61.8
>>> observed("CCS(=O)(=O)Nc1ccc(Oc2ccc(F)cc2F)c(-c2cn(C)c(=O)cc2OCC(C)(C)O)c1")
708
>>> observed("CCOc1cc(=O)n(C)cc1-c1cc(S(=O)(=O)N2CCc3ccccc32)ccc1Oc1ccc(F)cc1F")
1000
>>> observed("CCOc1cc(=O)n(C)cc1-c1cc(NS(=O)(=O)CC)ccc1OC1CCC1")
237
>>> observed("CCOc1cc(=O)n(C)cc1-c1cc(NC(=O)c2ccccn2)ccc1Oc1ccc(F)cc1F")
279
>>> observed("CCOc1cc(=O)n(C)cc1-c1cc(NS(=O)(=O)CC)ccc1Oc1cccnc1")
50.2
>>> observed("CCOc1cc(=O)n(C)cc1-c1cc(CS(=O)(=O)CC)ccc1Oc1ccc(F)cc1F")
126
>>> observed("CCOc1cc(=O)n(C)cc1-c1cc(NS(=O)(=O)CC)ccc1Oc1ccc(C#N)cc1F")
115
>>> observed("CCOc1cc(=O)n(C)cc1-c1cc(NS(=O)(=O)CC)ccc1Oc1ccc(F)cc1")
15.6
>>> observed("CCS(=O)(=O)Nc1ccc(Oc2ccc(F)cc2F)c(-c2cn(C)c(=O)cc2-c2ccc(C)s2)c1")
72.3
>>> observed("CCOc1cc(=O)n(C)cc1-c1cc(S(=O)(=O)CC)ccc1Oc1ccc(OC(F)(F)F)cc1")
92.4
>>> observed("CCOc1cc(=O)n(C)cc1-c1cc(S(=O)(=O)CC)ccc1Oc1ccc(C#N)cc1")
103
>>> observed("CCOc1cc(=O)n(C)cc1-c1cc(NS(=O)(=O)CC)ccc1OCCC1CC1")
83.6
>>> observed("CCOc1cc(=O)n(C)cc1-c1cc(NS(=O)(=O)CC)ccc1Oc1c(F)cc(Cl)cc1F")
24.7
>>> observed("CCS(=O)(=O)Nc1ccc(Oc2ccc(F)cc2F)c(-c2cn(C)c(=O)cc2-c2ccoc2)c1")
70.7
>>> observed("CCS(=O)(=O)Nc1ccc(Oc2ccc(F)cc2F)c(-c2cn(C)c(=O)cc2-c2ccco2)c1")
69.2
>>> observed("CCS(=O)(=O)Nc1ccc(Oc2ccc(F)cc2F)c(-c2cn(C)c(=O)cc2-c2cnn(CC(C)C)c2)c1")
57.3
>>> observed("CCOc1cc(=O)n(C)cc1-c1cc(S(=O)(=O)CC)ccc1Oc1ccc(F)cc1F")
40.2
>>> observed("CCOc1cc(=O)n(C)cc1-c1cc(NS(=O)(=O)CC)ccc1Oc1ccc(C(F)(F)F)cc1")
54.1
>>> observed("CCOc1cc(=O)n(C)cc1-c1cc(NS(=O)(=O)CC)ccc1Oc1cc(F)c(F)c(F)c1")
55.2
>>> observed("CCOc1cc(=O)n(C)cc1-c1cc(NC(=O)c2cc(Cl)ccc2Cl)ccc1Oc1ccc(F)cc1F")
251
>>> observed("CCOc1cc(=O)n(C)cc1-c1cc(NS(=O)(=O)CC)ccc1Oc1ccc(F)c(F)c1")
25.1
>>> observed("CCS(=O)(=O)Nc1ccc(Oc2ccc(F)cc2F)c(-c2cn(C)c(=O)cc2-c2cnn(Cc3ccccc3)c2)c1")
79.8
>>> observed("CCOc1cc(=O)n(C)cc1-c1cc(NC(=O)c2cncs2)ccc1Oc1ccc(F)cc1F")
254

----------
# Subject Of Test: second (BD2: amino acids E352-E168) bromodomain of BRD4 (Homo sapiens)
# Construct: protocol
# Assay Notes: TR-FRET bromodomain binding assay, BRD4 BD2
# Test Settings: TR-FRET assay protocol (A-G, compound concentration range); Ki calculated from IC50, probe Kd and probe concentration; read-out: TR-FRET Binding Ki: BRD4 (BDII_E352-M457)
Measured Ki by item
Measured Metric: Ki (nM)

>>> observed("CC(=O)N1CCC(c2cc(=O)n(C)nc2-c2ccccc2Oc2ccccc2)CC1")
3890
>>> observed("COc1cc(-c2cc(=O)n(C)nc2-c2cc(NS(C)(=O)=O)ccc2Oc2ccccc2)ccn1")
63.5
>>> observed("CCS(=O)(=O)Nc1ccc(Oc2ccc(F)cc2F)c(-c2cn(C)c(=O)cc2OCC2CCOC2)c1 (centres unmarked)")
6.27
>>> observed("CCOc1cc(=O)n(C)cc1-c1cc(S(C)(=O)=O)ccc1NCC1CC1")
251
>>> observed("CCS(=O)(=O)Nc1ccc(Oc2ccc(F)cc2F)c(-c2cn(C)c(=O)cc2OCc2ccc(CN3CCOCC3)cc2)c1")
0.39
>>> observed("Cn1nc(-c2ccccc2Oc2ccccc2)c(C2=CCNCC2)cc1=O")
2480
>>> observed("COC(=O)c1ccc(-c2cc(=O)n(C)nc2-c2ccccc2Oc2ccccc2)cc1")
960

----------
# Subject Of Test: first (BD1: amino acids K57-E168) bromodomain of BRD4 (Homo sapiens)
# Construct: His-tagged first (BD1: amino acids K57-E168)
# Assay Notes: TR-FRET bromodomain binding assay, BRD4 BD1
# Test Settings: TR-FRET assay protocol (A-G, compound concentration range); Ki calculated from IC50, probe Kd and probe concentration; read-out: TR-FRET Binding Ki: BRD4 (BDI_K57-E168)
# Method: A time-resolved fluorescence resonance energy transfer (TR-FRET) assay was used to determine the affinities of compounds of the Examples listed in Table 1 for each bromodomain of BRD4. […] TR-FRET data were normalized to the means of 24 no-compound controls (“high”) and 8 controls containing 1 μM un-labeled probe (“low”). […] Inhibition constants (Ki) were calculated from the IC50s, probe Kd and probe concentration. […]
pKi: −log10 of the molar value.
# pKi per record follows
Measured Metric: pKi

>>> observed("COc1cc(=O)n(C)nc1-c1cc(NS(=O)(=O)Cc2ccccc2)ccc1Oc1ccccc1")
6.53
>>> observed("CC(C)N1CCN(c2ccc(-c3cc(=O)n(C)nc3-c3ccccc3Oc3ccccc3)cc2)CC1")
7.35
>>> observed("CN1CCN(Cc2cccc(-c3cc(=O)n(C)nc3-c3ccccc3Oc3ccccc3)c2)CC1")
6.77
>>> observed("CCS(=O)(=O)c1ccc(Oc2ccc(F)cc2F)c(-c2cn(C)c(=O)cc2OC2COC2)c1")
6.81
>>> observed("Cn1nc(-c2cc(C(=O)O)ccc2Oc2ccccc2)ccc1=O")
4.75
>>> observed("Cn1cc(-c2cc(NS(C)(=O)=O)ccc2OC2CCCCC2)ccc1=O")
7.65
>>> observed("CCS(=O)(=O)Nc1ccc(Oc2ccc(F)cc2F)c(-c2cn(C)c(=O)cc2OCc2ccc(CN3CCOCC3)cc2)c1")
8.60
